Where do these numbers come from? They come from patent US20260069689A1.

biological target: T1, SARS-CoV2 Spike ecto foldon Trimer expressed with a C-terminal myc-myc-hexahistidine (SARS-CoV-2, UniProt P0DTC2 14-1213); assay: SPR Biacore, mAb captured by anti-hFc, 37C
T1 construct: extracellular domain
# Kd listing for each entry below
Number only, in nM; omit the unit.

mAb14258 (antibody, V domains shown) VH: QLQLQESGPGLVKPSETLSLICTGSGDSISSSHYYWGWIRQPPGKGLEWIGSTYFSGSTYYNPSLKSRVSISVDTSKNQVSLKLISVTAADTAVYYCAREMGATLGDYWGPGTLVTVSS VL: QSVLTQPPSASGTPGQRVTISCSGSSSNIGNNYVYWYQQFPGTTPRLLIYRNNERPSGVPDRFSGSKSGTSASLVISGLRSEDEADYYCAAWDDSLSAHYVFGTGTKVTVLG : 0.0776

Next, consider the following binder.
Reported Kd for mAb15160 (antibody, V domains shown) VH: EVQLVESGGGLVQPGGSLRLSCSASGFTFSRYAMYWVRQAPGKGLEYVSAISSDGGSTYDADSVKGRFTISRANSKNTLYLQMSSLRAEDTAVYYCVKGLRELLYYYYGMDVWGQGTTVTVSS VL: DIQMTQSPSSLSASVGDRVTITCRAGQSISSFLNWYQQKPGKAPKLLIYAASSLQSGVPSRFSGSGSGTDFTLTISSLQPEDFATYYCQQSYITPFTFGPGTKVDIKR : what is it?
0.132
